assaySummary: Metabolic stability in human microsomes assessed as intrinsic clearance
Type: ADME, Microsome
appliedConditions: read-out: CLH
endpoint: microsomal CLint (µL/min/mg)

>  <molecule>
COC(=O)NCCCn1cc(CN(C(=O)[C@H]2CNCCO2)C2CC2)c2c(C)ccnc21

>  <observedResult>
109

$$$$
>  <molecule>
COCCCn1cc(CN(C(=O)[C@H]2CNCCO2)C2CC2)c2cccnc21

>  <observedResult>
39

$$$$
>  <molecule>
COCCCn1cc(CN(C(=O)[C@H]2CNCCO2)C2CC2)c2ncccc21

>  <observedResult>
10

$$$$
>  <molecule>
COC(=O)NCCCn1cc(CN(C(=O)[C@H]2CNCCO2)C2CC2)c2cccnc21

>  <observedResult>
11

$$$$
>  <molecule>
COC(=O)NCCCn1nc([C@@H](C)N(C(=O)[C@H]2CNCCO2)C2CC2)c2cccnc21

>  <observedResult>
33

$$$$
>  <molecule>
COC(=O)NCCCn1cc([C@@H](C)N(C(=O)[C@H]2CNCCO2)C2CC2)c2cccnc21

>  <observedResult>
31

$$$$

1. COCCCn1cc(CN(C(=O)[C@H]2CNCCO2)C2CC2)c2ccccc21
2. COC(=O)NCCCn1nc([C@@H](C)N(C(=O)[C@H]2CNCCO2)C2CC2)c2ccc(C)nc21 [SITOKIREN]
Exercise: Identify the entry with the larger microsomal CLint. Options: 1 and 2 Your answer should be the label of the entry you select.
Solution: 1

1. COC(=O)NCCCn1cc(CN(C(=O)[C@H]2CNCCO2)C2CC2)c2ccc(C)nc21
2. COC(=O)NCCCn1cc([C@H](C)N(C(=O)[C@H]2CNCCO2)C2CC2)c2cccnc21
3. COC(=O)NCCCn1cc([C@@H](C)N(C(=O)[C@H]2CNCCO2)C2CC2)c2nccnc21
Exercise: rank_up(items): orders items by reported microsomal CLint in ascending numerical order. Write the labels out in the order the request specifies.
Solution: 3, 2, 1
(3: 27 µL/min/mg, 2: 69 µL/min/mg, 1: 126 µL/min/mg)

// data source = ChEMBL document CHEMBL5137087
